Catalogue of molecules with associated pIC50
Target: Non-receptor tyrosine-protein kinase TYK2 (Homo sapiens, UniProt P29597)
Sequence (P29597 whole entry): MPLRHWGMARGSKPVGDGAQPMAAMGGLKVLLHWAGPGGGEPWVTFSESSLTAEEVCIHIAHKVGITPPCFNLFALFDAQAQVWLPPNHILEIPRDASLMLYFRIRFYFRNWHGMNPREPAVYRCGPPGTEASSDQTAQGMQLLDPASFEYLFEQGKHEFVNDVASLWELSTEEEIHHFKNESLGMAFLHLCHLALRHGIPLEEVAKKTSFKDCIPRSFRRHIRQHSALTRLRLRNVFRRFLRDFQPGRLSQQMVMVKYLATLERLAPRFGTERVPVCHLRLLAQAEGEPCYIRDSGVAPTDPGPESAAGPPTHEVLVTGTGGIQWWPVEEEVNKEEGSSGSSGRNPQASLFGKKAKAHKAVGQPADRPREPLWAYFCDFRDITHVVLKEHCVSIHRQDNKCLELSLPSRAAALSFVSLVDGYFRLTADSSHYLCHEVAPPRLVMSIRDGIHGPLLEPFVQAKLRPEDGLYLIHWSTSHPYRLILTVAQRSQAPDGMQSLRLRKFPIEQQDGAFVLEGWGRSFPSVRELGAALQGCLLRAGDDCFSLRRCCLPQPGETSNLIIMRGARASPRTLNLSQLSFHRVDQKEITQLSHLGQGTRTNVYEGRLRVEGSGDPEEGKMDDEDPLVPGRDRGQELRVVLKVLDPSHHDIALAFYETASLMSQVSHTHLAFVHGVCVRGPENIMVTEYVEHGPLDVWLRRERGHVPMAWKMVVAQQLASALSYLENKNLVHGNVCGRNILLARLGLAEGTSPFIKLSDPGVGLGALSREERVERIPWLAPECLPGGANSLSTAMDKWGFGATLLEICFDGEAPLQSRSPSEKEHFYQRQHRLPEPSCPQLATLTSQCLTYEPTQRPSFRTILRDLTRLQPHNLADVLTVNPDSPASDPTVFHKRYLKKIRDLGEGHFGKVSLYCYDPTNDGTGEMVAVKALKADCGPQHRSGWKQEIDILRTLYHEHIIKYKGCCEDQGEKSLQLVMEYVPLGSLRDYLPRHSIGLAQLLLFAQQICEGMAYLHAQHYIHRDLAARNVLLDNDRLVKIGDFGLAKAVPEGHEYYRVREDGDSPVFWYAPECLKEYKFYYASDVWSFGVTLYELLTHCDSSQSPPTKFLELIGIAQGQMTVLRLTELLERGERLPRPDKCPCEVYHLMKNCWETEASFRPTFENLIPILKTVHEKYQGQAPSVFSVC
Test: Inhibition of recombinant human TYK2 using GGMEDIYFEFMGGKKK as substrate incubated for 40 mins in presence of Mg/ATP mixture by [gamma p33]-ATP based scintillation counting method
Keep it numeric: pIC50 is minus log10 of the concentration in mol/L.

Previously resolved entries follow.
O=C(Nc1nc2cccc([C@H]3CCC4(CCN(C(=O)[C@@H]5CC5(F)F)CC4)C3)n2n1)C1CC1
6.08
O=C(Nc1nc2cccc(C3CCC4(CC3)CCN(C(=O)CC(F)(F)F)C4)n2n1)C1CC1 (centres undefined)
5.82
O=C(Nc1nc2cccc([C@@H]3CCC4(CCN(C(=O)[C@@H]5CC5(F)F)CC4)C3)n2n1)C1CC1
6.24

Attention now shifts to the item below.
In: What does the record list as pIC50 for O=C(Nc1nc2cccc([C@@H]3CCC4(C3)CN(C(=O)[C@@H]3CC3(F)F)C4)n2n1)C1CC1 ?
Out: 6.39

* * *

Assay: Plasma protein binding in rat assessed as unbound fraction at 2 uM incubated for 4 hrs by LC/MS/MS based balanced dialysis method
valueKind: fraction unbound at 4 h, 2 µM
Just the number, please.

O=C(Nc1nc2cccc(C3CCC(NC(=O)C4(F)CC4)CC3)n2n1)C1CC1 (configuration not stated)
0.196
O=C(Nc1nc2cccc(C3CCC4(CC3)CCN(C(=O)[C@@H]3CC3(F)F)CC4)n2n1)C1CC1
0.067
O=C(Nc1nc2cccc(C3CCC4(CC3)CCN(C(=O)[C@@H]3CC3(F)F)C4)n2n1)C1CC1 (some centres not stated)
0.205
O=C(Nc1nc2cccc(-c3ccc(CN4CCS(=O)(=O)CC4)cc3)n2n1)C1CC1 [FILGOTINIB]
0.399
O=C(Nc1nc2cccc(C3CCC4(CC3)CN(C(=O)[C@@H]3CC3(F)F)C4)n2n1)C1CC1
0.26

In: Sample O=C(Nc1nc2cccc([C@H]3CC[C@@H](NC(=O)[C@@H]4CC4(F)F)CC3)n2n1)C1CC1 — what was its fraction unbound at 4 h, 2 µM?
Out: 0.156

In: Please do the same for N#CCC(=O)N1CC2(CCC(c3cccc4nc(NC(=O)C5CC5)nn34)CC2)C1 as well.
Out: 0.544

* * *

Assay: Volume of distribution at steady state in Sprague-Dawley rat at 1 mg/kg, iv measured for 24 hrs by LC-MS/MS analysis
Assay type: ADME, organism-based
Conditions: in vivo, read-out: Vdss
valueKind: Vd

In: Could you share which Vd value was measured for O=C(Nc1nc2cccc(C3CCC4(CC3)CN(C(=O)[C@@H]3CC3(F)F)C4)n2n1)C1CC1 ?
Out: 1.81 L/kg

* * *

Here, each record is paired with measured efflux ratio at 2 h, 10 µM data.
Assay: Efflux ratio of apparent permeability from basolateral to apical side over apical to basolateral side in human Caco-2 cells at 10 uM incubated for 120 mins by LC-MS/MS analysis
Lab note: record the figure alone, no unit after it.

In: # efflux ratio at 2 h, 10 µM lookup, item O=C(Nc1nc2cccc([C@H]3CC[C@@H](NC(=O)[C@@H]4CC4(F)F)CC3)n2n1)C1CC1
Out: 10.5

In: Would you mind doing O=C(Nc1nc2cccc(C3CCC(NC(=O)C4(F)CC4)CC3)n2n1)C1CC1 (centres undefined) as well?
Out: 6.57

In: Do the same for O=C(Nc1nc2cccc(C3CCC4(CC3)CCN(C(=O)[C@@H]3CC3(F)F)CC4)n2n1)C1CC1 please
Out: 6.77

In: // repeat for O=C(Nc1nc2cccc(C3CCC4(CC3)CCN(C(=O)[C@@H]3CC3(F)F)C4)n2n1)C1CC1 (some centres undefined) and report
Out: 19.5
